# Tested on: Muscarinic acetylcholine receptor M4 (Homo sapiens) (UniProt P08173)
# Sequence (P08173 whole entry, looked up): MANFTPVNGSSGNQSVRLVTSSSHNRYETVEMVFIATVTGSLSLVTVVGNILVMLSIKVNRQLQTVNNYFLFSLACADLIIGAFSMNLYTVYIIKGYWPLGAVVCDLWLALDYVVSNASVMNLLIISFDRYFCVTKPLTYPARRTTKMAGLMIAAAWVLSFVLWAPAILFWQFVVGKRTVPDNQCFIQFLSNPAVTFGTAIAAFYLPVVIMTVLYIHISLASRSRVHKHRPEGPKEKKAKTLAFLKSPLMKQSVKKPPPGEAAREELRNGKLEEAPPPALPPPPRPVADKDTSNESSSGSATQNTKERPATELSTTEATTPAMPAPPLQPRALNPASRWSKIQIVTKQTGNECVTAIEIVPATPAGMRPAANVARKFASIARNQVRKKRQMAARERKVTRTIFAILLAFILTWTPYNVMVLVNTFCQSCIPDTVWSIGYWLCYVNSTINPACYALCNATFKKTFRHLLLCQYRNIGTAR
# Assay text: M4-linked GIRK flux change, two-sided – cell-based, HEK293 M4/GIRK, thallium flux, BTC-AM, M4 allosteric agonist project, primary screen (AID 625);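 note: thallium influx through GIRK channels coupled to M4 in HEK293 cells with BTC-AM dye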
# Condition info: at 10 µM, actives lie on both sides
Active and inactive are the calls of the source.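 Rule for the calls: active = fluorescence slope after compound addition differing from the mean of all tested samples at 99.7% confidence, mostly higher but some lower; inactive = the rest.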 Where a SMILES comes first, the peptide text is derived from it. The star is where a group is joined. Boc = CC(C)(C)OC(=O)*
Hi there, use one of these labels in your reply, thanks! active, inactive

Solved cases below.
>  <Molecule>
Cc1ccc(NCc2nnc(SCC(=O)NCc3ccco3)n2CC2CCCO2)cc1Cl (stereo unspecified)

>  <Answer label>
inactive

$$$$
>  <Molecule>
CCc1ccc(NC(=O)c2cc(-c3ccco3)on2)cc1

>  <Answer label>
inactive

$$$$
>  <Molecule>
CCOC(=O)N1CCN(C(=O)Nc2ccc(Cl)cc2)CC1

>  <Answer label>
inactive

$$$$
>  <Molecule>
CCOC(=O)C1CCN(c2c(NCCCN(CC)c3ccccc3)c(=O)c2=O)CC1

>  <Answer label>
inactive

$$$$
>  <Molecule>
CCOC(=O)N1CCN(C(=O)C(NS(=O)(=O)c2cccc3nsnc23)c2ccccc2)CC1 (stereo unspecified)

>  <Answer label>
inactive

$$$$
>  <Molecule>
CCOC(=O)CCC(=O)c1c(C)oc2ccc(OC)cc12

>  <Answer label>
inactive

$$$$

Returns: the outcome recorded for `O=C(c1cccs1)c1cn(CC(=O)N2CCc3ccccc3C2)c2ccccc12` in this assay.
inactive

Returns: the outcome recorded for `COc1ccccc1S(=O)(=O)n1cc(Cc2ccccc2)c(N)n1` in this assay.
inactive

Returns: the outcome recorded for `O=C(Cn1nnc(-c2cccc(C(F)(F)F)c2)n1)NC(=O)NCc1ccco1` in this assay.
inactive

Returns: the outcome recorded for `O=C(COc1ccccc1Cl)N1CCCC1` in this assay.
inactive

Returns: the outcome recorded for `CCn1c2ccccc2c2cc(NC(=O)CSc3nnc(C4CC4)n3Cc3ccco3)ccc21` in this assay.
inactive

Returns: the outcome recorded for `CCc1nnc(NC(=O)c2cccc(C(=O)Nc3nnc(CC)s3)n2)s1` in this assay.
inactive

Returns: the outcome recorded for CC(c1ccccc1)N1C(=O)c2ccc(C(=O)NCc3ccco3)cc2C1=O (stereo unspecified) in this assay.
inactive

Returns: the outcome recorded for `CCOC(=O)CSc1nnc(CNC(=O)c2ccc(OC)c(OC)c2)n1C` in this assay.
inactive

Returns: the outcome recorded for CCOC(=O)C1=C(C)Nc2ncnn2C1c1cc(OC)ccc1OC (stereo unspecified) in this assay.
inactive

Returns: the outcome recorded for Cc1cccc(OCC(=O)N2CCC(c3ccccc3)C2)c1 (stereo unspecified) in this assay.
inactive

Returns: the outcome recorded for `Cc1ccccc1CSCC(=O)c1c(N)n(C)c(=O)n(C)c1=O` in this assay.
inactive

Returns: the outcome recorded for `Oc1cccc2ccc(Nc3ccccn3)nc12` in this assay.
inactive

Returns: the outcome recorded for CC(Oc1ccc2oc(-c3ccccc3)c(C(=O)O)c2c1)C(=O)O (stereo unspecified) in this assay.
inactive

Returns: the outcome recorded for `CC1CCN(C(=S)c2ccccc2O)CC1` in this assay.
inactive

Returns: the outcome recorded for CC(C)(C)OC(=O)N1CCCC1C(=O)N1CCCC1C(=O)N1CCCC1C(=O)O (stereo not drawn) (Boc-Pro-Pro-Pro-OH; configuration not given here) in this assay.
inactive

Returns: the outcome recorded for `C=CCSc1nc2c(c(=O)[nH]c(=O)n2C)n1C(C)C` in this assay.
inactive

Returns: the outcome recorded for `c1ccc2c(c1)nc(CN1CCOCC1)n1c3ccccc3nc21` in this assay.
inactive

Returns: the outcome recorded for `CN(CCC#N)C(=O)COC(=O)c1ccc(Cl)c(S(N)(=O)=O)c1` in this assay.
inactive

Returns: the outcome recorded for `O=C(NC1CCCCC1)[C@H](O)[C@@H](O)C(=O)NC1CCCCC1` in this assay.
inactive

Returns: the outcome recorded for `CN(C)/C=c1\sc2c(C#N)cc(C(=O)c3ccc(Br)cc3)n2c1=O` in this assay.
active

Returns: the outcome recorded for CCOC(=O)C(CC)Sc1ncnc2nc[nH]c12 (stereo unspecified) in this assay.
inactive
